biological target: ALPK1 (Homo sapiens, UniProt Q96QP1); construct: endogenous in cells; host or cells: HEK293 (A1); HEK293 stably expressing an NF-kB-alkaline phosphatase reporter (A2); test: IL-8 secretion by HEK293 cells (IL-8 ELISA) as indication of ALPK1 activation; type: cell-based; details: HEK293 cells treated 4 hours, FIG. 6, Table 2A
Sequence (Q96QP1 whole entry): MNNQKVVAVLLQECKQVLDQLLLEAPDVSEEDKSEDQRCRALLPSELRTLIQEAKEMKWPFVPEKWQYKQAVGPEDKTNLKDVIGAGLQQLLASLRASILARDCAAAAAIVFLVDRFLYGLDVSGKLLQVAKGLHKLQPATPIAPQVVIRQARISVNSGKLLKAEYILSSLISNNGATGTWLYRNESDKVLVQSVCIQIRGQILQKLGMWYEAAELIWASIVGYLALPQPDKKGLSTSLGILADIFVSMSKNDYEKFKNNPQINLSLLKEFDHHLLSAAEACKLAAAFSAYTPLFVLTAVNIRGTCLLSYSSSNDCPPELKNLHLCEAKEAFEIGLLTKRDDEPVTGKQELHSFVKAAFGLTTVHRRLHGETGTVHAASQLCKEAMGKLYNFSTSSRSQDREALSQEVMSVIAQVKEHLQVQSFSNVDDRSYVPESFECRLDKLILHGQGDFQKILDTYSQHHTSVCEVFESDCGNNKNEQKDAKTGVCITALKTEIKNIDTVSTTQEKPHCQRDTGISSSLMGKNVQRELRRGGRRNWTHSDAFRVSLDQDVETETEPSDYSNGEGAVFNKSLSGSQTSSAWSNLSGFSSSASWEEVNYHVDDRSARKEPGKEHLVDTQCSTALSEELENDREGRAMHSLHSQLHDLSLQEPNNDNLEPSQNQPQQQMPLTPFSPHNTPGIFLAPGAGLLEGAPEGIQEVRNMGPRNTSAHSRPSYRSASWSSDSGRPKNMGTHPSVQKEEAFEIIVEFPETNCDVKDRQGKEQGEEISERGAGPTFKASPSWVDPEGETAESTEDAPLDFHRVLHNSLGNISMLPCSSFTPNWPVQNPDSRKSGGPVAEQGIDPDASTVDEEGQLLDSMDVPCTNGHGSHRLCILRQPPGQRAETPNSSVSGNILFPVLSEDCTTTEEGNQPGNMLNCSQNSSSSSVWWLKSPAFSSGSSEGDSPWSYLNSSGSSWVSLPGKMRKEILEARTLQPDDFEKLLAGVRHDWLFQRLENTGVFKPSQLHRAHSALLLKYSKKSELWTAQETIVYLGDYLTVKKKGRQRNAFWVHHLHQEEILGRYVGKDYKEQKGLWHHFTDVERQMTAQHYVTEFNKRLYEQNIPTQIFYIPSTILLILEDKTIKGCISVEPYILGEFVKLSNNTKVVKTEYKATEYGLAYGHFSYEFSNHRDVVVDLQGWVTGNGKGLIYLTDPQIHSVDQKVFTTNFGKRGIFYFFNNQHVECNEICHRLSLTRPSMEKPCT
EC50 less than 3 nM is TRUE; EC50 greater than or equal to 3 nM is FALSE.

{"MOLECULE": "CCCCCCCCC(=O)OC[C@H](F)C1O[C@@H](OP(=O)(O)OP(O)(=S)OC[C@H]2O[C@@H](n3cnc4c(N)ncnc43)C(O)C2O)C(OC(C)=O)C(OC(C)=O)[C@@H]1OC(C)=O (some centres unmarked)", "GROUP_LABEL": "FALSE"}
{"MOLECULE": "CCCCCCCCCCCCCC(=O)OC[C@H](F)C1O[C@@H](OP(=O)(O)OP(O)(=S)OC[C@H]2O[C@@H](n3cnc4c(N)ncnc43)C(O)C2O)C(OC(C)=O)C(OC(C)=O)[C@@H]1OC(C)=O (some centres unmarked)", "GROUP_LABEL": "TRUE"}
{"MOLECULE": "CCCCCCCCCCCCCCCCCC(=O)OC[C@H](F)[C@H]1O[C@@H](OP(=O)(O)OP(O)(=S)OC[C@H]2O[C@@H](n3cnc4c(N)ncnc43)[C@H](O)[C@@H]2O)[C@@H](OC(C)=O)[C@@H](OC(C)=O)[C@@H]1OC(C)=O (some centres unmarked)", "GROUP_LABEL": "FALSE"}
{"MOLECULE": "CCCCCCCCCCCC(=O)OC[C@H](F)C1O[C@@H](OP(=O)(O)OP(O)(=S)OC[C@H]2O[C@@H](n3cnc4c(N)ncnc43)C(O)C2O)C(OC(C)=O)C(OC(C)=O)[C@@H]1OC(C)=O (stereo in doubt)", "GROUP_LABEL": "FALSE"}
{"MOLECULE": "CC(=O)OC[C@H](F)C1O[C@@H](OP(=O)(O)OP(O)(=S)OC[C@H]2O[C@@H](n3cnc4c(N)ncnc43)C(O)C2O)C(OC(C)=O)C(OC(C)=O)[C@@H]1OC(C)=O (some centres unmarked)", "GROUP_LABEL": "FALSE"}

Origin of measurements: patent US20220177510A1
